Would you mind telling me the reported melting point of each entry?

Recorded results for 4 compounds are shown here.
Cc1ccc(S(=O)(=O)N(C)C)cc1NC(=S)NN: 191 to 193 °C
CC(=O)Nc1cccc(NC(=O)CCl)c1: 173 to 175 °C
O=C(O)c1cccc(S(=O)(=O)Nc2ccccc2-c2ccccc2)c1: 164 to 166 °C
O=C(O)c1sc(Cl)nc1Cl: 164 to 166 °C

For every item below, please supply its melting point.
1. O=C(O)C(Oc1ccccc1)c1ccccc1 (stereo unspecified)
2. O=C(O)CCc1ccccc1OC(F)(F)F

result:
103 to 105 °C
49 to 51 °C

* * *

Would you mind telling me the reported melting point of each entry?

Recorded results for 3 compounds are shown here.
O=C(O)c1ccc(-c2cc(Cl)cc(Cl)c2)s1: 190 to 195 °C
O=C(Nc1ccc(F)cc1)OCC(F)(F)F: 76 to 80 °C
N#CC1CNCCN1Cc1ccccc1 (stereo unspecified): 98 to 100 °C

For every item below, please supply its melting point.
1. NCC1(CO)CCOCC1
2. O=C(c1ccc(Cl)nc1)N1CCc2ccccc21
3. O=C(O)COc1ccc(S(=O)(=O)Cl)cc1Cl
4. NC1CCN(c2ncccn2)CC1
5. CCOc1cccnc1C(=O)O

result:
1. 54 to 56 °C
2. 132 to 134 °C
3. 123 to 125 °C
4. 82 to 84 °C
5. 130 to 132 °C

* * *

experimental endpoint: melting point

Recorded results for 7 molecules are shown here.
O=S(=O)(Cl)C=Cc1ccc(Br)cc1: 149 to 151 °C
O=C(c1cccc(Cl)c1)N1CCNCC1: 96 to 98 °C
COC(=O)c1n[nH]c(C)c1Br: 148 to 150 °C
Cc1cc2c(c(C)c1Cl)C(=O)CCO2: 67 to 69 °C
NC(=O)NCC1CC1: 117 to 119 °C
O=S(=O)(NC1CCCC1)c1ccc(Cl)nc1: 97 to 99 °C
CN1CCN(c2ccc(CO)cc2F)CC1: 87 to 89 °C

Okay, next one:
query: What value of melting point has been reported for the following molecule? COC(=O)c1ccccc1CBr
result: 31 to 33 °C

* * *

experimental endpoint: melting point

Recorded results for 5 compounds are shown here.
Cc1ccc(C(=O)CCl)cc1C: 51 to 53 °C
NCCNS(=O)(=O)Cc1ccccc1: 88 to 90 °C
O=C(CCl)NC(=O)Nc1ccc2c(c1)OCCCO2: 110 to 112 °C
COc1ccc(C(=O)O)cc1-c1ccccc1: 220 to 222 °C
COc1cc2c(cc1OC)CN(Cc1ccccc1N)CC2: 149 to 151 °C

For every item below, please supply its melting point.
1. Nc1cccc(C(=O)N2CCc3ccccc32)c1
2. O=c1cc(CCl)nc2ccc(Br)cn12
3. Cc1nc(C(=O)O)nn1-c1ccccc1
4. COc1ccc(OC)c(-c2csc(N)n2)c1

result:
125 to 127 °C
172 to 174 °C
172 to 174 °C
113 to 115 °C

For every item below, please supply its melting point.
1. COC(=O)c1cc(F)c(F)cc1N
2. N#Cc1ccc(C(=O)N2CCOCC2)cc1
3. Cc1ccc(S(=O)(=O)NCC2CCCO2)cc1C(=O)O (centres undefined)
4. O=C(O)CSCc1ccccn1
5. O=Cc1cccc2cn[nH]c12
6. CC(C)(C)OC(=O)NC1(C#N)CCCC1
7. Nc1ccc(Cl)nc1C(=O)O
8. COc1cc(C(C)=O)ccc1S(C)(=O)=O

result:
1: 79 to 81 °C; 2: 144 to 146 °C; 3: 160 to 162 °C; 4: 136 to 138 °C; 5: 121 to 123 °C; 6: 106 to 108 °C; 7: 219 to 221 °C; 8: 124 to 126 °C

* * *

Would you mind telling me the reported melting point of each entry?

Recorded results for 4 molecules are shown here.
CC(=O)SC(C(=O)O)c1ccccc1 (stereo not given): 79 to 81 °C
Cc1cccc2c(CC(=O)O)c[nH]c12: 188 to 190 °C
COC(=O)Cc1cc(=O)[nH]c(S)n1: 185 to 187 °C
Cc1c(CN)cnn1C: 38 to 40 °C

For every item below, please supply its melting point.
1. FC(F)c1nc2c(Cl)cccc2[nH]1
2. O=C(CCl)N1CCCC1=O
3. COc1cc2c(cc1C=O)OC(C)C2 (stereo not given)
4. Cc1c(N)cccc1C(=O)N1CCCC1
5. CC(c1ccco1)N(C(=O)CCl)c1ccccn1 (stereo not given)
6. CN(C)C(C(=O)O)c1cccnc1 (stereo not given)
7. CN(C(=O)CC#N)C1CCCCC1
8. Nc1ccc(S(=O)(=O)Nc2ccc(Cl)cc2)cc1N

result:
["125 to 127 °C", "33 to 35 °C", "78 to 80 °C", "162 to 164 °C", "87 to 89 °C", "184 to 186 °C", "88 to 90 °C", "146 to 150 °C"]

* * *

Would you mind telling me the reported melting point of each entry?

Recorded results for 3 molecules are shown here.
Clc1ccc2cccnc2c1CBr: 119 to 121 °C
CCN(CC)S(=O)(=O)c1cc(C(=O)O)n(C)c1: 174 to 176 °C
Cc1ccnc(-c2cccc(N)c2)n1: 123 to 125 °C

For every item below, please supply its melting point.
1. Cc1ccc(C(=O)O)cc1NCc1ccc(Br)o1
2. COc1ccc(C(N)=NO)c(OC)c1

result:
1. 125 to 127 °C
2. 129 to 131 °C

For every item below, please supply its melting point.
1. O=C(CC1CCCCC1)NCCC1CNc2ccccc21 (stereo unspecified)
2. Nc1ccc(S(=O)(=O)Nc2cccc(Cl)c2)cc1
3. Cc1cccc(NC(=O)C(Br)C(C)C)c1C (stereo unspecified)
4. COc1ccc(NS(=O)(=O)c2cc(N)ccc2N2CCCCC2)cc1
5. Cc1ccc(CNC(=O)C2CCNCC2)cc1F
6. CC(O)CCNc1cc2nc[nH]c(=O)c2cc1N (stereo unspecified)

result:
124 to 126 °C
132 to 134 °C
150 to 152 °C
145 to 154 °C
134 to 136 °C
209 to 211 °C

For every item below, please supply its melting point.
1. O=C(O)c1ccccc1S(=O)(=O)C(F)(F)F
2. NNC(=O)CCOc1ccccc1
3. NC(=O)COc1ccc(C(=O)CCl)cc1

result:
1. 107 to 109 °C
2. 69 to 71 °C
3. 163 to 165 °C

For every item below, please supply its melting point.
1. COC(=O)C(=O)CC(=O)c1ccccc1C
2. O=C(Nc1ccc(O)cc1)c1cccs1
3. O=[N+]([O-])c1cccc(Sc2ccccc2)c1

result:
59 to 61 °C
166 to 168 °C
38 to 40 °C

For every item below, please supply its melting point.
1. O=C(O)/C=C/c1ccc2c(c1)OCCO2
2. COC(=O)C(O)c1cc(Cl)cc(Cl)c1 (stereo unspecified)

result:
165 to 169 °C
80 to 82 °C

For every item below, please supply its melting point.
1. O=C(O)c1ccc(Cl)o1
2. Cc1cccc(C#N)n1
3. CN(C)C=Nc1[nH]ncc1C#N
4. Cc1cc(CNCc2cc(C)c(O)c(C)c2)cc(C)c1O
5. NC(=O)c1nn(CC(=O)O)c(=O)c2ccccc12
6. C=CCN(c1ccccc1)S(=O)(=O)c1cccc(C(=O)O)c1
7. O=C(O)CC1COCCN1 (stereo unspecified)

result:
["180 to 182 °C", "70 to 72 °C", "159 to 161 °C", "249 to 251 °C", "220 to 222 °C", "103 to 105 °C", "253 to 255 °C"]

For every item below, please supply its melting point.
1. Cc1nn(C2CCCCC2)c(C)c1N
2. CC=Cc1ccc(OCCCC(=O)OC)c(OC)c1
3. O=C(O)CSCc1ccc(Br)cc1F
4. CC(C)(C)OC(=O)Nc1ccc(F)cc1N

result:
69 to 71 °C
38 to 40 °C
57 to 59 °C
131 to 133 °C

For every item below, please supply its melting point.
1. Nc1ccc(F)c(N2CCCC2=O)c1
2. O=C(c1cccnc1)c1ccc2c(c1)CCO2

result:
122 to 124 °C
108 to 110 °C

* * *

experimental endpoint: melting point

Recorded results for 5 molecules are shown here.
Fc1nc(C(F)(F)F)ccc1I: 48 to 50 °C
Cc1[nH]c(C(=O)O)c(C)c1C: 80 to 82 °C
COc1ccccc1C1(C(=O)O)CCC1: 149 to 151 °C
Nc1cc(-c2cccc(Cl)c2Cl)[nH]n1: 110 to 112 °C
Cc1c(C(=O)O)oc2c1C(=O)CC(C)(C)C2: 199 to 201 °C

For every item below, please supply its melting point.
1. NC(=O)c1cc(N)c(F)cc1F
2. CC(NS(=O)(=O)Cc1ccccc1)C(=O)O (configuration not stated)

result:
1. 169 to 171 °C
2. 119 to 121 °C
